Attribution: PubChem BioAssay (NCI)

System: KM12 colon
Assay: NCI tumour cell line growth inhibition, 48 h
recorded_metric: GI50

// worked examples, GI50 included
compound: Oc1ccc(O)c(-c2cc(-c3ccc(Cl)cc3)nn2-c2ccccc2)c1
reported_measurement: 4.14 µM
--
compound: O=C(O)c1cn(C2CC2)c2cc(N3CCN(C(=O)Nc4nc(-c5ccccc5)cs4)CC3)c(F)cc2c1=O
reported_measurement: 0.485 µM
--
compound: COc1cccc(/C=N/NC(=S)NC2CC3CCC2C3)c1O (stereo not given)
reported_measurement: 26.3 µM
--
compound: CCC(c1ccc(OC)cc1)C(CC)c1ccc(O)c(CN2CCN(C)CC2)c1 (stereo not given)
reported_measurement: 3.68 µM
--
compound: N#Cc1c(Br)n(C2OC(CO)C(O)C2O)c2ncnc(N)c12 (stereo not given)
reported_measurement: 1.71 µM
--
compound: Nc1ccccc1.[C-]#[O+].[C-]#[O+].[C-]#[O+].[C-]#[O+].[C-]#[O+].[Cr]
reported_measurement: 7.97 µM
--
compound: COc1ccc2c(C3(c4cn(C)c5cc(OC)ccc45)C(=O)Nc4ccc(Cl)cc43)cn(C)c2c1
reported_measurement: 3.82 µM
--
compound: CC(=O)c1c(CN(C)c2ccccc2)n([O-])c2ccccc2[n+]1=O
reported_measurement: 29.6 µM
--
compound: Cc1cc2cc3ccc(N(C)C)cc3nc2cc1N
reported_measurement: 0.439 µM

// next entry
compound COc1ccc(/C=c2\sc3n(c2=O)C2C(NN=3)N(C)C(=O)N2C)cc1 (stereo not given) , GI50 observed: 0.588 µM
